The measured values listed here are drawn from paper PMC6259569.

Consider the following compounds and their measured pIC50 readings.
Protein target, amino acids: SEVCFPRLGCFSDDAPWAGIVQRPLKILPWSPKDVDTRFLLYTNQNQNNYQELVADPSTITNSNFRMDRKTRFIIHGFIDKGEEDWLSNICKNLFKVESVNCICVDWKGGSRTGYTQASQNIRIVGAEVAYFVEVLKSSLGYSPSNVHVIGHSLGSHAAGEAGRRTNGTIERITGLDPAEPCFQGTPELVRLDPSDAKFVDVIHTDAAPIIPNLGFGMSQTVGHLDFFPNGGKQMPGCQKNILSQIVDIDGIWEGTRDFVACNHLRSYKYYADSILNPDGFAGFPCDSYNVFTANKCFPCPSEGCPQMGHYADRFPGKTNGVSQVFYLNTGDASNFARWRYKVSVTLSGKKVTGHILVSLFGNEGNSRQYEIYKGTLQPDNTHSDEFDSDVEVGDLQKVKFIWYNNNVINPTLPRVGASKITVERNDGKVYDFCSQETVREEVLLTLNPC
pIC50: −log10 of the molar value.

[
  {
    "COMPOUND": "CC1OC(OC2C(c3c(O)cc4oc(-c5ccc(O)c(O)c5)cc(=O)c4c3O)OC(CO)C(O)C2O)C(O)C(O)C1O [Compound 5, isoorientin 2-O-α-L-rhamnoside]",
    "RELATIONAL_OPERATOR": "=",
    "pIC50": 4.73
  },
  {
    "COMPOUND": "C[C@H]1O[C@@H](c2c(O)cc3oc(-c4ccc(O)c(O)c4)cc(=O)c3c2O)C[C@H](O)[C@H]1O [Compound 1, luteolin 6-C-β-D-boivinopyranoside]",
    "RELATIONAL_OPERATOR": "=",
    "pIC50": 4.30
  },
  {
    "COMPOUND": "O=C(O)/C=C/c1ccc(O)c(O)c1 [Compound 9, caffeic acid]",
    "RELATIONAL_OPERATOR": "<",
    "pIC50": 3.70
  },
  {
    "COMPOUND": "O=c1cc(-c2ccc(O)c(O)c2)oc2cc(O)c([C@@H]3O[C@H](CO)[C@@H](O)[C@H](O)[C@H]3O)c(O)c12 [Compound 3, isoorientin]",
    "RELATIONAL_OPERATOR": "=",
    "pIC50": 4.35
  },
  {
    "COMPOUND": "COC(=O)[C@]1(O)C[C@@H](O)[C@@H](O)[C@H](OC(=O)/C=C/c2ccc(O)c(O)c2)C1 [Compound 8, methyl chlorogenate]",
    "RELATIONAL_OPERATOR": "=",
    "pIC50": 4.47
  }
]
